target_or_test_system: Brd2(1)*(Leu110-Ala) (Homo sapiens, UniProt P25440, L110A)
Sequence (P25440 74-180 L110A limits assumed): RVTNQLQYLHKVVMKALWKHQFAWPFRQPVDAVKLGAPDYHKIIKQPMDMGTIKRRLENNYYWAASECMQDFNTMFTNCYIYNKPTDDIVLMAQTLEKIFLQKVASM
assay_remarks: DSF thermal shift
Assay type: binding
Design: Plasmids of the eight single BET bromodomain constructs Brd2(1), Brd2(2), Brd3(1), Brd3(2); His6 (N); made in house; host or cells: E. coli BL21(DE3)
test_settings: mutant
Provide the reported ΔTm Brd2(1)*(Leu110-Ala) of each item.
Report the figure in K without appending any unit label.

Q: // query ΔTm Brd2(1)*(Leu110-Ala) value for entry COC(=O)[C@@H](C)[C@@H]1N=C(c2ccc(Cl)cc2)c2cc(OC)ccc2-n2c(C)nnc21 (racemic) [Compound 6]
Result: 1.6

Q: Give its ΔTm Brd2(1)*(Leu110-Ala) value. Item: CC[C@@H](C(=O)OC)[C@@H]1N=C(c2ccc(Cl)cc2)c2cc(OC)ccc2-n2c(C)nnc21 (racemic) [Compound 11]
Result: 7.6

Q: Given COC(=O)[C@H](CC1CC1)[C@@H]1N=C(c2ccc(Cl)cc2)c2cc(OC)ccc2-n2c(C)nnc21 (racemic) [Compound 13] , state its recorded ΔTm Brd2(1)*(Leu110-Ala).
Result: 3.7
